test system: HepG2 B6 cells (STAT-sPAP reporter); assay: OSM-GST mutant driven sPAP production in HepG2 B6 assay; assay type: cell-based, human
Property Label: Expt 2 EC50 (µg/mL)
Form entry: value (µg/mL) — number only.

Task: Consider the molecule (8) G15A: OSM-GST fusion, alanine for Gly 15 (protein, left off: a dimerising Fc or GST; large carriers; small tags and cut ends) AAIGSCSKEYRVLLAQLQKQTDLMQDTSRLLDPYIRIQGLDVPKLREHCRERPGAFPSEETLRGLGRRGFLQTLNATLGCVLHRLADLEQRLPKAQDLERSGLNIEDLEKLQMARPNILGLRNNIYCMAQLLDNSDTAEPTKAGRGASQPPTPTPASDAFQRKLEGCRFLHGYHRFMHSVGRVFSKWGESPNRSRR and give its measured Expt 2 EC50.
Output: 0.0178

These entries and their values trace back to patent US7291332B2.
